Assay: AUC (0 to 24 hrs) in ICR mouse at 5 mg/kg, iv by LC-MS/MS analysis
Format: ADME, organism-based
Conditions: in vivo
experimental endpoint: AUC(0-t) (ng·h/mL)
The response must be a number in ng·h/mL with no trailing unit.

Item: C=CC(=O)Nc1ccccc1Nc1cc2c(C)nc(-c3c(Cl)c(OC)cc(OC)c3Cl)cc2cn1 | AUC(0-t): 4810

* * *

Assay: AUC (0 to 24 hrs) in ICR mouse at 50 mg/kg, po measured after 24 hrs by LC-MS/MS analysis
Assay type: ADME, organism-based
Details: in vivo
experimental endpoint: AUC(0-t) at 24 h (ng·h/mL)
The response must be a number in ng·h/mL with no trailing unit.

Item: C=CC(=O)Nc1ccccc1Nc1cc2c(C)nc(-c3c(Cl)c(OC)cc(OC)c3Cl)cc2cn1 | AUC(0-t) at 24 h: 27300

* * *

Target: Fibroblast growth factor receptor 1 (Homo sapiens, UniProt P11362)
Sequence (P11362 whole entry): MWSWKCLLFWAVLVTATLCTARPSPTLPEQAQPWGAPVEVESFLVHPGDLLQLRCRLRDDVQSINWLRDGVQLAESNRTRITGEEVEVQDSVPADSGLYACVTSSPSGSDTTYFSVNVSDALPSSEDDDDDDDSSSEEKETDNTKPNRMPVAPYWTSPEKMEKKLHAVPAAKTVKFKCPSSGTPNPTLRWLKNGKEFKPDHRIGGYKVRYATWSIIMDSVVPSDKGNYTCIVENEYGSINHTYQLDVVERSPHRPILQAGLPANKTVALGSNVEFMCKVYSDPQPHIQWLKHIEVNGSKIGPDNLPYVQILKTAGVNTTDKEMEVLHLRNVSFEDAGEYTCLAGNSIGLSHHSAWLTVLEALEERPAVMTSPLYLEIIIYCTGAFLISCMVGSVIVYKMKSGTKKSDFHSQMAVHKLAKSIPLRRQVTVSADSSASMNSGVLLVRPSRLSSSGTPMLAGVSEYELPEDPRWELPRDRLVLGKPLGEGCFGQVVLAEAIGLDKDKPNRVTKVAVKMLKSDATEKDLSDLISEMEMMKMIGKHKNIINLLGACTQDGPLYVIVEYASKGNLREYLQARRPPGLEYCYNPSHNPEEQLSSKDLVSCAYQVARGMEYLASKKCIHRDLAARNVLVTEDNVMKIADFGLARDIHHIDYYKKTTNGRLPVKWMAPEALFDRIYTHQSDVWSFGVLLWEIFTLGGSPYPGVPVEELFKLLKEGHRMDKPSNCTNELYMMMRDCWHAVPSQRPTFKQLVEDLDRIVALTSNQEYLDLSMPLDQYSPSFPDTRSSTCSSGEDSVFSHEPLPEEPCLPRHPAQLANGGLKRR
experimental endpoint: pIC50
// pIC50: -log10(molar conc.)

pIC50 for Fibroblast growth factor receptor 1 (Homo sapiens, UniProt P11362) with input C=CC(=O)Nc1ccccc1Nc1cc2c(C)nc(-c3c(Cl)c(OC)cc(OC)c3Cl)cc2cn1 equals 5.90

* * *

Assay: Half-life in ICR mouse at 5 mg/kg, iv by LC-MS/MS analysis
Assay type: ADME, organism-based
Details: in vivo
experimental endpoint: half-life (h)
The response must be a number in h with no trailing unit.

Item: C=CC(=O)Nc1ccccc1Nc1cc2c(C)nc(-c3c(Cl)c(OC)cc(OC)c3Cl)cc2cn1 | half-life: 1.7

* * *

Test: Oral bioavailability in ICR mouse at 50 mg/kg measured after 24 hrs by LC-MS/MS analysis
Format: ADME, organism-based
Settings: in vivo
experimental endpoint: bioavailability

Item: C=CC(=O)Nc1ccccc1Nc1cc2c(C)nc(-c3c(Cl)c(OC)cc(OC)c3Cl)cc2cn1 | bioavailability: 56.8%

* * *

Experiment: Cmax in ICR mouse at 5 mg/kg, iv by LC-MS/MS analysis
Assay type: ADME, organism-based
Conditions: in vivo
experimental endpoint: Cmax
Number plus unit, in that order.

Item: C=CC(=O)Nc1ccccc1Nc1cc2c(C)nc(-c3c(Cl)c(OC)cc(OC)c3Cl)cc2cn1 | Cmax: 8140 ng/mL

* * *

Assay: Tmax in ICR mouse at 50 mg/kg, po measured after 24 hrs by LC-MS/MS analysis
Format: ADME, organism-based
Details: in vivo
experimental endpoint: Tmax (h)
The response must be a number in h with no trailing unit.

Item: C=CC(=O)Nc1ccccc1Nc1cc2c(C)nc(-c3c(Cl)c(OC)cc(OC)c3Cl)cc2cn1 | Tmax: 1

* * *

Assay: Cmax in ICR mouse at 100 mg/kg, po measured after 24 hrs by LC-MS/MS analysis
Assay type: ADME, organism-based
Conditions: in vivo
experimental endpoint: Cmax (ng/mL)
The response must be a number in ng/mL with no trailing unit.

Item: C=CC(=O)Nc1ccccc1Nc1cc2c(C)nc(-c3c(Cl)c(OC)cc(OC)c3Cl)cc2cn1 | Cmax: 24600
